Hi there, I'd appreciate the recorded IC50 for every entry that follows.
System Under Test: HDAC1 (Homo sapiens, UniProt Q13547)
Sequence (Q13547 whole entry): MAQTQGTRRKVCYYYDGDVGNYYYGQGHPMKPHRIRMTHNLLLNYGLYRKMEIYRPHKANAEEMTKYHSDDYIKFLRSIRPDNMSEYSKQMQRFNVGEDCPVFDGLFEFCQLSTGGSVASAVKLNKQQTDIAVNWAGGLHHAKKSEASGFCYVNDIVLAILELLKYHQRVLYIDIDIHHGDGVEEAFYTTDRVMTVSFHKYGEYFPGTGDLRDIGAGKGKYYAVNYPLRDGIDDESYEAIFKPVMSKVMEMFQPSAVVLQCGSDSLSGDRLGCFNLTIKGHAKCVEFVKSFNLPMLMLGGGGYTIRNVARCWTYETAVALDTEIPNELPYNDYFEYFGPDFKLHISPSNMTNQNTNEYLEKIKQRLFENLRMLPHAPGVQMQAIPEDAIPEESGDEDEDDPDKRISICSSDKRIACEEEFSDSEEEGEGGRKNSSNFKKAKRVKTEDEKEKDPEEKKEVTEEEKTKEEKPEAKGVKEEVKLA
Method Notes: Two-step fluorescence assay for determination of IC50
Assay type: biochemical
Experimental: In order to evaluate the inhibitory characteristics of example compounds of the invention, IC50 values were determined for such compounds. […] A two-step assay was used for this purpose. To obtain the IC50 value for an individual compound/HDAC pair, a two-step assay can be performed based on a fluorescence signal. In principle, an ε-acetylated lysine substrate is deacetylated by histone-deacetylases in the first step. […]
Answers are plain numbers, in µM.

Field: IC50. Fill in for each record below.
1. O=C(NO)C(F)(F)C(F)(F)C(F)(F)C(F)(F)C(F)(F)C(F)(F)C(=O)Nc1ccccc1 [LU210]
2. Cc1ccc(NC(=O)C(F)(F)C(F)(F)C(F)(F)C(F)(F)C(F)(F)C(F)(F)C(=O)NO)cc1C [LU228]
3. CCc1cccc(NC(=O)C(F)(F)C(F)(F)C(F)(F)C(F)(F)C(F)(F)C(F)(F)C(=O)NO)c1 [LU232]

Response:
17.9
10
19.9
